# tgt: FAP (Homo sapiens)
# Construct: Cell extract from 293 cells stably transfected with FAP prepared as described; expressed in transfected cells; detergent extract used
# Sequence (Q12884 1-760): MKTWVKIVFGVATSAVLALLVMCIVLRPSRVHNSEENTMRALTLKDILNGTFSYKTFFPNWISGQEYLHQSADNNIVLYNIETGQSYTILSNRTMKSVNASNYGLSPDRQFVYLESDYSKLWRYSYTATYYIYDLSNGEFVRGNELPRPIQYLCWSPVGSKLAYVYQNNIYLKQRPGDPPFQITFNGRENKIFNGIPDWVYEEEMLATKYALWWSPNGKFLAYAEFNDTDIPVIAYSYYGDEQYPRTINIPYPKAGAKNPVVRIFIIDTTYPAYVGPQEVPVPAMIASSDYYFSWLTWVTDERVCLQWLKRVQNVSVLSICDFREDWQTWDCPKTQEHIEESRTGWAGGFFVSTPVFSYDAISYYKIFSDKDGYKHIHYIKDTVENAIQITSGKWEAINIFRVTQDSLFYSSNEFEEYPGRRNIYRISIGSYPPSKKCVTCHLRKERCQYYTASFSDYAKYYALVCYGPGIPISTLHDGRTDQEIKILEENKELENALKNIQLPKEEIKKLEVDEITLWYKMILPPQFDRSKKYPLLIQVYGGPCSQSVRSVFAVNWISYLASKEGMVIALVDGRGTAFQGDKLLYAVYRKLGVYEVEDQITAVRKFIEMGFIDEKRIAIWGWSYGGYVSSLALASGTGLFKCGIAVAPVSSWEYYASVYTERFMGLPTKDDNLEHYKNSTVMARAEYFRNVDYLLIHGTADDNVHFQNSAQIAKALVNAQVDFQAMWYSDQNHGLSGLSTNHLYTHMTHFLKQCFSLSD
# measurement-description: Assay for cleavage of MNA substrates by FAP
# Assay type: biochemical
# experimental-context: 1 ng FAP enzyme in 293 cell extract, 20 μl 2.5 mM substrate (a few diluted further), room temperature 1 hour, control 293 extract subtracted
*1 amine or outer side, *2 acyl side, *3 side chain or, on linkers, in order; H or OH if unused. Where no end group is shown, it is not given here. [ ]: non-standard residue; d: D form. The star is where a group is joined. NH(4-MeO-2-naphthyl) = COc1cc(N*)cc2ccccc12; Glutaryl = O=C(CCCC(=O)[*:2])[*:1]; Suc = O=C(CCC(=O)[*:2])[*:1]; 4Amb = NCc1ccc(C(=O)O)cc1; NMeA = CN[C@@H](C)C(=O)O
endpoint-label: Cleavage (µM)

These recorded examples may help you get a feel for the data.
{"substance": "Glutaryl-Pro-Ala-Gly-Pro-MNA (Glutaryl-PAGP-{NH(4-MeO-2-naphthyl)}; SMILES COc1cc(NC(=O)[C@@H]2CCCN2C(=O)CNC(=O)[C@H](C)NC(=O)[C@@H]2CCCN2C(=O)CCCC(=O)O)cc2ccccc12)", "unit-string": "µM", "endpoint-result": 1.48}
{"substance": "Pyrid-3-ylmethyloxycarbonyl-MeAla-Ala-Gly-Pro-MNA ({pyrid‑3‑ylmethyloxycarbonyl}-[NMeA]AGP-{NH(4-MeO-2-naphthyl)}) [MeAla represents a N-methylalanin moiety]", "unit-string": "µM", "endpoint-result": 6.31}
{"substance": "4-Dimethylaminobenzoyl-Pro-Ala-Gly-Pro-MNA ({4‑dimethylaminobenzoyl}-PAGP-{NH(4-MeO-2-naphthyl)})", "unit-string": "µM", "endpoint-result": 1.85}

1. 3-Carboxyphenylsulfonyl-Pro-Ala-Gly-Pro-MNA ({3‑carboxyphenylsulfonyl}-PAGP-{NH(4-MeO-2-naphthyl)})
2. Pyrid-4-ylmethyloxycarbonyl-2-Aze-Ala-Gly-Pro-MNA
Data request: Hi there, can you help? I need to know whether 1 or 2 has lower measured Cleavage. Give the label of your selection.
Data returned: 1
(1: 2.88 µM, 2: 8.07 µM)

A. Pyridin-3-ylmethoxycarbonyl-Pro-Ala-Gly-Pro-MNA ({pyridin‑3‑ylmethoxycarbonyl}-PAGP-{NH(4-MeO-2-naphthyl)})
B. Succinyl-Pro-Ala-Gly-Pro-MNA (Suc-PAGP-{NH(4-MeO-2-naphthyl)}; SMILES COc1cc(NC(=O)[C@@H]2CCCN2C(=O)CNC(=O)[C@H](C)NC(=O)[C@@H]2CCCN2C(=O)CCC(=O)O)cc2ccccc12)
C. Pyrid-3-ylmethyloxycarbonyl-Pip-Ala-Gly-Pro-MNA
Data request: Highest Cleavage first, then in falling order down to the smallest. Please list the labels according to the requested order.
Data returned: A, C, B
(A: 8.86 µM, C: 2.78 µM, B: 1.44 µM)

A. Pyrid-4-ylmethyloxycarbonyl-Pip-Ala-Gly-Pro-MNA
B. 4-Aminomethylbenzoyl-Pro-Ala-Gly-Pro-MNA ([4Amb]PAGP-{NH(4-MeO-2-naphthyl)})
Data request: From the recorded data, which exceeds the other in Cleavage: A or B ? Give the label of your selection.
Data returned: A

Source listed as patent US20030232742A1.
